test-method-notes: qHTS for Inhibitors of human tyrosyl-DNA phosphodiesterase 1 (TDP1): qHTS in cells in absence of CPT; note: nearly all actives have a fitted effect of over 55% in size
condition-notes: DT40 Tdp1-/- hTDP1 cells, no CPT, ATP luminescence, 48 h
Hit rate of the full screen: of about 420,000 compounds, about 64,000 (15%) were called active. Roughly 27% stayed inconclusive and do not appear here. Calls come from the whole dose curve; as a rule, active = well fitted inhibition curve with a large enough effect; inconclusive = small, poorly fitted or top-dose-only effect; inactive = flat fitted curve, though single readings scatter. Not all results are given here.
Returns: one label drawn from active, inactive

{"columns": ["compound", "discrete-label"],
 "data": [
  ["COc1ccc(CCC(=O)c2c(O)cc(OC3OC(CO)C(O)C(O)C3O[C@@H]3OC(C)C(O)C(O)C3O)cc2O)cc1O (some centres not stated)", "inactive"],
  ["CC(C)Oc1ccc(C(=O)Nc2cc(=O)n(C)c(=O)n2C)cc1", "inactive"],
  ["CC(=O)Cn1ncc(N2CCOCC2)c(Br)c1=O", "inactive"],
  ["O=C(c1cn(CC2CCCN(Cc3cc4ccccc4s3)C2)nn1)N1CCCC1 (configuration not stated)", "inactive"],
  ["CCOC(=O)CSc1nnc(NC(=O)c2cccc(S(=O)(=O)N3CCCCC3)c2)s1", "inactive"],
  ["Fc1ccc(Br)cc1/C=N/n1cnnc1", "inactive"]
]}

Status in this test for COc1ccc(NC(=O)CNC(=O)Cn2ccc3ccccc3c2=O)c(OC)c1 ?
inactive

Status in this test for O=C(NCCc1ccccn1)c1ccc(COc2ccccc2)o1 ?
inactive
